assay: clinical; design: species or system human; details: both sexes, human, in vivo, sc
Where no end group is shown, it is not given here.
MEASUREMENT TYPE: bioavailability (%)
Numbers only, in %.

Request: Record request: bioavailability value, item EVVPPQVLSEPNEEAGAALSPLPEVPPWTGEVSPAQR [VSDL]
Result: 19.2

Data origin, for the record: patent US10004754B2
